experimental.protocol: Brain pharmacokinetics in CD-1 nude mice (NCA)
Format: in vivo, mouse
experimental.parameters: CD-1 nude, mouse; Brain; NCA estimate
measured.metric: Tmax (h)
State the answer as a number, implicitly in h.

# molecule, measured.metric, units.symbol, reported
measured = [
    ("CNC(=O)c1ccc(-c2cnc3ncc(Cc4ccc5ncccc5c4)n3n2)cc1F [Capmatinib]", "Tmax", "h", 0.5),
]

Now examine the next entry.
Quick note, Tmax for C[C@@H](Oc1cc(-c2cnn(C3CCNCC3)c2)cnc1N)c1c(Cl)ccc(F)c1Cl [Crizotinib] landed at 4

----------
experimental.protocol: Brain pharmacokinetics in CD-1 nude mice (NCA)
Format: in vivo, mouse
experimental.parameters: CD-1 nude, mouse, 25 mg/kg; Brain; NCA estimate; read-out: Vz/F
measured.metric: Vd/F (L/kg)
State the answer as a number, implicitly in L/kg.

Quick note, Vd/F for CNC(=O)c1ccc(-c2cnc3ncc(Cc4ccc5ncccc5c4)n3n2)cc1F landed at 67

----------
experimental.protocol: In vitro protein binding assay, naive mouse brain tissue homogenate
measured.metric: fraction unbound
Just the number, please, no unit after it.

Quick note, fraction unbound for CNC(=O)c1ccc(-c2cnc3ncc(Cc4ccc5ncccc5c4)n3n2)cc1F landed at 0.113

----------
Test system: murine TFG-MET tumor cells
experimental.protocol: cells
experimental.parameters: Mus musculus, read-out: in vitro IC50
measured.metric: pIC50
Formally, pIC50 is defined as -log10 of the concentration c, with c in mol/L.

Quick note, pIC50 for C[C@@H](Oc1cc(-c2cnn(C3CCNCC3)c2)cnc1N)c1c(Cl)ccc(F)c1Cl landed at 6.91

----------
experimental.protocol: Brain pharmacokinetics in CD-1 nude mice (NCA)
Type: in vivo, mouse
experimental.parameters: CD-1 nude, mouse, 25 mg/kg; Brain; NCA estimate
measured.metric: AUC(0-inf) (ng·h/mL)
State the answer as a number, implicitly in ng·h/mL.

Quick note, AUC(0-inf) for CNC(=O)c1ccc(-c2cnc3ncc(Cc4ccc5ncccc5c4)n3n2)cc1F landed at 1260

----------
experimental.protocol: Brain pharmacokinetics in CD-1 nude mice (NCA)
Assay type: in vivo, mouse
experimental.parameters: CD-1 nude, mouse, 25 mg/kg; Brain; NCA estimate
measured.metric: k el (s⁻¹)
State the answer as a number, implicitly in s⁻¹.

Quick note, k el for CNC(=O)c1ccc(-c2cnc3ncc(Cc4ccc5ncccc5c4)n3n2)cc1F landed at 8.22e-05

----------
In this section we review reported k el values for a set of compounds.
experimental.protocol: Plasma pharmacokinetics in CD-1 nude mice (NCA)
Format: in vivo, mouse
experimental.parameters: CD-1 nude, mouse; Plasma; NCA estimate
State the answer as a number, implicitly in s⁻¹.

# item.smiles, units.symbol, k el
data = [
    ("CNC(=O)c1ccc(-c2cnc3ncc(Cc4ccc5ncccc5c4)n3n2)cc1F", "s⁻¹", "8.47e-05"),
]

Quick note, k el for C[C@@H](Oc1cc(-c2cnn(C3CCNCC3)c2)cnc1N)c1c(Cl)ccc(F)c1Cl landed at 1.86e-05

----------
experimental.protocol: Brain pharmacokinetics in CD-1 nude mice (NCA)
Assay type: in vivo, mouse
experimental.parameters: CD-1 nude, mouse; Brain; NCA estimate
measured.metric: AUC(0-t) (ng·h/mL)
State the answer as a number, implicitly in ng·h/mL.

# compound, units.symbol, AUC(0-t)
records = [
    ("C[C@@H](Oc1cc(-c2cnn(C3CCNCC3)c2)cnc1N)c1c(Cl)ccc(F)c1Cl [Crizotinib]", "ng·h/mL", 6570),
]

Now examine the next entry.
Quick note, AUC(0-t) for CNC(=O)c1ccc(-c2cnc3ncc(Cc4ccc5ncccc5c4)n3n2)cc1F [Capmatinib] landed at 1140

----------
experimental.protocol: Plasma pharmacokinetics in CD-1 nude mice (NCA)
Assay type: in vivo, mouse
experimental.parameters: CD-1 nude, mouse; Plasma; NCA estimate; read-out: Vz/F
measured.metric: Vd/F (L/kg)
State the answer as a number, implicitly in L/kg.

# item.smiles, units.symbol, Vd/F
records = [
    ("C[C@@H](Oc1cc(-c2cnn(C3CCNCC3)c2)cnc1N)c1c(Cl)ccc(F)c1Cl", "L/kg", 23),
]

Now examine the next entry.
Quick note, Vd/F for CNC(=O)c1ccc(-c2cnc3ncc(Cc4ccc5ncccc5c4)n3n2)cc1F landed at 4.99

----------
experimental.protocol: Brain pharmacokinetics in CD-1 nude mice (NCA)
Type: in vivo, mouse
experimental.parameters: CD-1 nude, mouse, 25 mg/kg; Brain; NCA estimate; read-out: Kp,inf
measured.metric: Kp
Just the number, please, no unit after it.

Quick note, Kp for CNC(=O)c1ccc(-c2cnc3ncc(Cc4ccc5ncccc5c4)n3n2)cc1F landed at 0.0768

----------
experimental.protocol: Plasma pharmacokinetics in CD-1 nude mice (NCA)
Assay type: in vivo, mouse
experimental.parameters: CD-1 nude, mouse; Plasma; NCA estimate
measured.metric: CL/F (mL/min/kg)
State the answer as a number, implicitly in mL/min/kg.

# compound, CL/F [mL/min/kg]
data = [
    ("C[C@@H](Oc1cc(-c2cnn(C3CCNCC3)c2)cnc1N)c1c(Cl)ccc(F)c1Cl [Crizotinib]", 25.8),
]

Quick note, CL/F for CNC(=O)c1ccc(-c2cnc3ncc(Cc4ccc5ncccc5c4)n3n2)cc1F [Capmatinib] landed at 25.3

----------
In this section we review reported Cmax values for a set of compounds.
experimental.protocol: Brain pharmacokinetics in CD-1 nude mice (NCA)
Format: in vivo, mouse
experimental.parameters: CD-1 nude, mouse; Brain; NCA estimate
State the answer as a number, implicitly in ng/mL.

Quick note, Cmax for C[C@@H](Oc1cc(-c2cnn(C3CCNCC3)c2)cnc1N)c1c(Cl)ccc(F)c1Cl [Crizotinib] landed at 453

Quick note, Cmax for CNC(=O)c1ccc(-c2cnc3ncc(Cc4ccc5ncccc5c4)n3n2)cc1F [Capmatinib] landed at 486
